# TGT: human Kv7.2/7.3 channels (Homo sapiens, UniProt O43525+O43526)
# TEST: Syncropatch automated patch clamp, activation of recombinantly expressed human Kv7.2/7.3 (KCNQ2/3) channels in CHO cells
# ASSAY_CONDITIONS: shift in G-V midpoint (Δ V0.5) vs concentration
pEC50: −log10 of the molar value.
The compounds listed here are annotated with their pEC50.

COMPOUND: Cc1c(F)c(N2CCc3cc(F)ccc3C2)c(F)c(C)c1NC(=O)CC(C)(C)C [Compound 1]
pEC50: 6.00 to 7.00
--
COMPOUND: C#CCN(Cc1ccc(F)cc1)c1ccc(NC(=O)OCC)c(N)c1 [Control, reference compound]
pEC50: > 7.00
--
COMPOUND: Cc1c(F)c(NCc2ccc(F)cc2)c(F)c(C)c1NC(=O)CC(C)(C)C [Compound 2]
pEC50: > 7.00
